Just for reference, paper PMC12416549 is where these values come from.

# assayTarget: T1, TNFR1 (Homo sapiens, UniProt P19438)
# T1 chain: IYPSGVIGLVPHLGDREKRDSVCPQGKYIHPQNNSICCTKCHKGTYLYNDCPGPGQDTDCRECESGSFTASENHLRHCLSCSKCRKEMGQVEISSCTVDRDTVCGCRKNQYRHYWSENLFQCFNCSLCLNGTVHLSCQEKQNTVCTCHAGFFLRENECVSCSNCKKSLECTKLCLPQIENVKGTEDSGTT
# testProtocol: yeast display SC50
readoutKind: apparent Kd (screen) (nM)

# binder, valueObserved
measured = [
    ("E67N (designed binder) MTLQELLREEALRRAEAEAFRYALELLAEKFPEQKEYLLDLAEEIESQIRSLSGVDVEDVRKFLDKNWAWVKELLAEHPAELAEVEAARAARLAELRAEVEAKVAA", 1.4),
    ("Q48H (designed binder) MTLQELLREEALRRAEAEAFRYALELLAEKFPEQKEYLLDLAEEIESHIRSLSGVDVEDVRKFLDKEWAWVKELLAEHPAELAEVEAARAARLAELRAEVEAKVAA", 0.653),
    ("E99S (designed binder) MTLQELLREEALRRAEAEAFRYALELLAEKFPEQKEYLLDLAEEIESQIRSLSGVDVEDVRKFLDKEWAWVKELLAEHPAELAEVEAARAARLAELRASVEAKVAA", 0.956),
]
